- Test system: SR leukemia
- assay-procedure: NCI tumour cell line growth inhibition, 48 h; in the data active = GI50 below about 0.43 µM; inactive = the rest
*1 amine or outer side, *2 acyl side, *3 side chain or, on linkers, in order; H or OH if unused. Where a SMILES comes first, the peptide text is derived from it. [ ]: non-standard residue; d: D form. The star is where a group is joined. X11 = C/C=C/CC(C)C(O)[C@H](N[*:1])C(=O)[*:2]; Decanoyl = CCCCCCCCCC(=O)*; Leu(ol) = CC(C)C[C@H](N)CO; Aib = CC(C)(N)C(=O)O
A correct response names exactly one class from 1.0 for active, 0.0 for inactive

Worked examples, 3 compounds total:
[[record]]
compound = "C/C=C/CC(C)C(O)[C@H](NC(=O)[C@@H]1CCCN1C(=O)C(C)(C)NC(=O)CCCCCCCCC)C(=O)NC(C)(C)C(=O)N[C@@H](CCC(N)=O)C(=O)N[C@H](CCC(N)=O)C(=O)NC(C)(C)C(=O)NC(C)(C)C(=O)N[C@@H](CCC(N)=O)C(=O)N[C@H](CC(C)C)C(=O)N[C@H](CO)CC(C)C (stereo partly drawn) (Decanoyl-[Aib]P[X11][Aib]Q[dQ][Aib][Aib]Q[dL][Leu(ol)])"
label = 0.0

[[record]]
compound = "CN1CCN(Cc2ccc(NC(=O)c3cncc(C#Cc4cnc5ccc(N6CCOCC6)nn45)c3)cc2C(F)(F)F)CC1"
label = 1.0

[[record]]
compound = "CN1CCN(Cc2ccc(NC(=O)c3cncc(C#Cc4cnc5ccc(N)nn45)c3)cc2C(F)(F)F)CC1"
label = 1.0


Please find the next compound below.
Recorded call for CCN1C(=O)N(CC)C2SC(N/N=C/c3cccs3)=NC21 (centres undefined) ?
1.0

---

Task for the reader: assign each of the following compounds its reported GI50.
- System: A498 renal
- assay-procedure: NCI tumour cell line growth inhibition, 48 h
*1 amine or outer side, *2 acyl side, *3 side chain or, on linkers, in order; H or OH if unused. Where a SMILES comes first, the peptide text is derived from it. [ ]: non-standard residue; d: D form. The star is where a group is joined. X11 = C/C=C/CC(C)C(O)[C@H](N[*:1])C(=O)[*:2]; Decanoyl = CCCCCCCCCC(=O)*; Leu(ol) = CC(C)C[C@H](N)CO; Aib = CC(C)(N)C(=O)O

Here's what some known entries look like.
[[record]]
compound = "CN1CCN(Cc2ccc(NC(=O)c3cncc(C#Cc4cnc5ccc(N)nn45)c3)cc2C(F)(F)F)CC1"
value_observed = "2720 nM"

[[record]]
compound = "CCN1C(=O)N(CC)C2SC(N/N=C/c3cccs3)=NC21 (centres undefined)"
value_observed = "131 nM"

[[record]]
compound = "CN1CCN(Cc2ccc(NC(=O)c3cncc(C#Cc4cnc5ccc(N6CCOCC6)nn45)c3)cc2C(F)(F)F)CC1"
value_observed = "97.5 nM"


Sample C/C=C/CC(C)C(O)[C@H](NC(=O)[C@@H]1CCCN1C(=O)C(C)(C)NC(=O)CCCCCCCCC)C(=O)NC(C)(C)C(=O)N[C@@H](CCC(N)=O)C(=O)N[C@H](CCC(N)=O)C(=O)NC(C)(C)C(=O)NC(C)(C)C(=O)N[C@@H](CCC(N)=O)C(=O)N[C@H](CC(C)C)C(=O)N[C@H](CO)CC(C)C (stereo partly drawn) (Decanoyl-[Aib]P[X11][Aib]Q[dQ][Aib][Aib]Q[dL][Leu(ol)]) — what was its GI50?
1990 nM
